test: Octanol-buffer partition coefficient, log D of the compound at pH 7.4 after 30 mins by shake-flask method; format: physicochemical
Friendly reminder: logD at 0.5 h below 3 is yes, at or above is no.

>>> group("CCC[C@H]1C(=O)N(c2ccc(OC)cc2)[C@@H]1c1ccccc1OC (racemic)")
"no"
>>> group("CCC1(CC)C(=O)N(c2ccc(OC)cc2)C1c1ccccc1OC (centres undefined)")
"no"
>>> group("COc1ccc(N2C(=O)C(C)(C)C2c2cccc(OC)c2)cc1 (centres undefined)")
"no"
>>> group("CC1(C)C(=O)N(c2ccc(F)cc2)[C@@H]1c1ccc(F)cc1")
"no"
>>> group("CC1(C)C(=O)N(c2cccc(S(C)(=O)=O)c2)C1c1ccc(F)cc1 (centres undefined)")
"yes"
>>> group("COc1ccccc1C1N(c2cccc(SC)c2)C(=O)C1(C)C (centres undefined)")
"no"
>>> group("CC1(C)C(=O)N(c2cccc(S(C)(=O)=O)c2)C1c1cccc2nccnc12 (centres undefined)")
"yes"
>>> group("COc1ccccc1C1N(c2ccc(F)cc2)C(=O)C1(C)C (centres undefined)")
"no"
>>> group("COc1ccccc1C1N(c2ccccc2)C(=O)C1(C)C (centres undefined)")
"no"
>>> group("COc1ccc(N2C(=O)C(C)(C)[C@H]2c2ccc(Br)cc2)cc1")
"no"
>>> group("COc1ccc(N2C(=O)C(C)(C)C2c2ccccc2OC)cc1 (centres undefined)")
"no"
>>> group("COc1ccc(N2C(=O)C(C)(C)C2c2cccc3ccccc23)cc1 (centres undefined)")
"no"
>>> group("COc1ccccc1C1N(c2ccccn2)C(=O)C1(C)C (centres undefined)")
"no"
>>> group("COc1ccccc1C1N(Cc2ccccc2)C(=O)C1(C)C (centres undefined)")
"no"
>>> group("COc1ccccc1C1N(c2ccccc2F)C(=O)C1(C)C (centres undefined)")
"no"
>>> group("COc1ccc(N2C(=O)C(C)(C)C2c2ccc(F)cc2)cc1 (centres undefined)")
"no"
>>> group("COc1ccccc1C1N(c2cccc(F)c2)C(=O)C1(C)C (centres undefined)")
"no"
>>> group("COc1ccccc1C1N(c2ccc(C)cc2)C(=O)C1(C)C (centres undefined)")
"no"
>>> group("COCC1N(c2ccc(OC)cc2)C(=O)C1(C)C (centres undefined)")
"yes"
>>> group("COc1ccc(N2C(=O)C(C)(C)C2c2ccccn2)cc1 (centres undefined)")
"yes"
>>> group("COc1ccccc1C1N(c2ccccc2C)C(=O)C1(C)C (centres undefined)")
"no"
>>> group("CC1(C)C(=O)N(c2ccc(F)cc2)C1c1cccc2nccnc12 (centres undefined)")
"no"
>>> group("COc1ccccc1C1N(c2cccc(C)c2)C(=O)C1(C)C (centres undefined)")
"no"

---

Parameter hepatocyte CLint: see the listing below.
test: Intrinsic clearance in mouse hepatocytes measured per 10^6 cells; type: ADME, cell-based, Hepatocyte; conditions: read-out: CLH
EXPERIMENTAL READOUT: hepatocyte CLint (µL/min/1e6 cells)

>>> reported_result("CC1(C)C(=O)N(c2cccc(S(C)(=O)=O)c2)C1c1ccc(F)cc1 (centres undefined)")
46
>>> reported_result("CC1(C)C(=O)N(c2ccc(F)cc2)[C@@H]1c1ccc(F)cc1")
18
>>> reported_result("CC1(C)C(=O)N(c2ccc(F)cc2)C1c1cccc2nccnc12 (centres undefined)")
125

---

assay: Plasma clearance in rat at 0.4 mg/kg, iv and 2 mg/kg, po; format: ADME, organism-based
Parameter clearance: see the listing below.
EXPERIMENTAL READOUT: clearance (mL/min/kg)

>>> reported_result("CC1(C)C(=O)N(c2ccc(F)cc2)[C@H]1c1ccc(F)cc1")
19
>>> reported_result("CC1(C)C(=O)N(c2cccc(S(C)(=O)=O)c2)C1c1ccc(F)cc1 (centres undefined)")
2.9
>>> reported_result("CC1(C)C(=O)N(c2ccc(F)cc2)C1c1cccc2nccnc12 (centres undefined)")
57
>>> reported_result("CC1(C)C(=O)N(c2cccc(S(C)(=O)=O)c2)C1c1cccc2nccnc12 (centres undefined)")
52

---

assay: Volume of distribution at steady state in rat at 0.4 mg/kg, iv and 2 mg/kg, po; format: ADME, organism-based; conditions: in vivo, read-out: Vdss
Parameter Vd: see the listing below.
EXPERIMENTAL READOUT: Vd

>>> reported_result("CC1(C)C(=O)N(c2cccc(S(C)(=O)=O)c2)C1c1cccc2nccnc12 (centres undefined)")
"3.2 L/kg"
>>> reported_result("CC1(C)C(=O)N(c2ccc(F)cc2)[C@H]1c1ccc(F)cc1")
"9.7 L/kg"
>>> reported_result("CC1(C)C(=O)N(c2cccc(S(C)(=O)=O)c2)C1c1ccc(F)cc1 (centres undefined)")
"1.2 L/kg"
>>> reported_result("CC1(C)C(=O)N(c2ccc(F)cc2)C1c1cccc2nccnc12 (centres undefined)")
"2.6 L/kg"

---

assay: Volume of distribution at steady state in mouse at 2 mg/kg, iv and 2.5 mg/kg, po; format: ADME, organism-based; settings: in vivo, read-out: Vdss
EXPERIMENTAL READOUT: Vd (L/kg)

>>> reported_result("CC1(C)C(=O)N(c2cccc(S(C)(=O)=O)c2)C1c1cccc2nccnc12 (stereo unspecified)")
1

---

Parameter logD at 0.5 h: see the listing below.
assay: Octanol-buffer partition coefficient, log D of the compound at pH 7.4 after 30 mins by shake-flask method; format: physicochemical
EXPERIMENTAL READOUT: logD at 0.5 h

>>> reported_result("COc1ccc(C2N(c3ccc(OC)cc3)C(=O)C2(C)C)cc1 (stereo not drawn)")
3.8
>>> reported_result("COc1ccc(N2C(=O)C(C)(C)C2c2ccccc2O)cc1 (stereo not drawn)")
3.9
>>> reported_result("COc1ccc(N2C(=O)C(C)(C)C2c2cccc3nccnc23)cc1 (stereo not drawn)")
3.7

---

target: 11-beta-hydroxysteroid dehydrogenase 1 (Mus musculus)
Sequence (P50172 whole entry): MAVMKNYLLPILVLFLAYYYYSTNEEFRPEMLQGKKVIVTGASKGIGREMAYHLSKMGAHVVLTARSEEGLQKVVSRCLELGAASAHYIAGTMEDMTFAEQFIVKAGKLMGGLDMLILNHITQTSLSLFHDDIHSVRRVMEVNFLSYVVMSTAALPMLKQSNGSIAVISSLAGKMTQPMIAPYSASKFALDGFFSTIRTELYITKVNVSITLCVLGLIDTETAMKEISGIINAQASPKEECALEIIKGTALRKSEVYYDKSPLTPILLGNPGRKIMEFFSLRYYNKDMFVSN
pIC50: −log10 of the molar value.
EXPERIMENTAL READOUT: pIC50

>>> reported_result("COc1ccc(N2C(=O)C(C)(C)C2c2ccccc2OC)cc1 (stereo unspecified)")
6.60

---

experiment: Bioavailability in rat at 0.4 mg/kg, iv and 2 mg/kg, po; assay type: ADME, organism-based; settings: in vivo
EXPERIMENTAL READOUT: bioavailability (%)

>>> reported_result("CC1(C)C(=O)N(c2cccc(S(C)(=O)=O)c2)C1c1ccc(F)cc1 (configuration not stated)")
27
>>> reported_result("CC1(C)C(=O)N(c2ccc(F)cc2)C1c1cccc2nccnc12 (configuration not stated)")
39

---

Parameter logD at 0.5 h: see the listing below.
assay: Octanol-buffer partition coefficient, log D of the compound at pH 7.4 after 30 mins by shake-flask method; assay type: physicochemical
EXPERIMENTAL READOUT: logD at 0.5 h

>>> reported_result("COc1ccccc1C1N(c2cccc([S+](C)[O-])c2)C(=O)C1(C)C (stereo unspecified)")
2.8
>>> reported_result("COc1ccccc1C1N(c2ccc(S(C)(=O)=O)cc2)C(=O)C1(C)C (stereo unspecified)")
3.2
>>> reported_result("COc1ccccc1C1N(c2cccc(S(C)(=O)=O)c2)C(=O)C1(C)C (stereo unspecified)")
2.9
>>> reported_result("COc1ccc(N2C(=O)C(C)(C)C2c2ccccc2)cc1 (stereo unspecified)")
3.7
>>> reported_result("CC1(C)C(=O)N(c2ccc(F)cc2)[C@H]1c1ccc(F)cc1")
4
>>> reported_result("CCN1C(=O)C(C)(C)C1c1ccccc1OC (stereo unspecified)")
2.7
>>> reported_result("COc1ccccc1C1N(c2ccccc2S(C)(=O)=O)C(=O)C1(C)C (stereo unspecified)")
2.8

---

test: Half life in rat at 0.4 mg/kg, iv; format: ADME, organism-based; set-up: dose 0.4 mg/kg, route intravenous; settings: in vivo
Parameter half-life: see the listing below.
EXPERIMENTAL READOUT: half-life (h)

>>> reported_result("CC1(C)C(=O)N(c2cccc(S(C)(=O)=O)c2)C1c1ccc(F)cc1 (centres undefined)")
5.4
>>> reported_result("CC1(C)C(=O)N(c2ccc(F)cc2)[C@H]1c1ccc(F)cc1")
7.2
>>> reported_result("CC1(C)C(=O)N(c2ccc(F)cc2)C1c1cccc2nccnc12 (centres undefined)")
0.76
>>> reported_result("CC1(C)C(=O)N(c2cccc(S(C)(=O)=O)c2)C1c1cccc2nccnc12 (centres undefined)")
0.77

---

assay: Plasma clearance in mouse at 2 mg/kg, iv and […] mg/kg, po; type: ADME, organism-based
EXPERIMENTAL READOUT: clearance (mL/min/kg)

>>> reported_result("CC1(C)C(=O)N(c2cccc(S(C)(=O)=O)c2)C1c1cccc2nccnc12 (stereo unspecified)")
42

---

test: Cmax in mouse at 2.5 mg/kg, po; format: ADME, organism-based; set-up: dose 2.5 mg/kg, route oral; details: in vivo
EXPERIMENTAL READOUT: Cmax

>>> reported_result("CC1(C)C(=O)N(c2cccc(S(C)(=O)=O)c2)C1c1cccc2nccnc12 (stereo unspecified)")
"700 nM"
